measurement notes: NCI Yeast Anticancer Drug Screen. Data for the mec2-1 strain (AID 157)
condition context: S. cerevisiae mec2-1 strain, at 50.0 µM (retest, dose inferred, filed as 5.0), stronger effect = higher value
The panel holds about 79,000 compounds, 15% with a hit somewhere; the sample as a whole holds those more often.
parameter: growth inhibition (%)
Lab book: enter the figure in %, no units written.

Before answering, review these 3 worked examples.
CC(=O)[C-](I)C(C)=O.CC(=O)[C-](I)C(C)=O.CC(=O)[C-](I)C(C)=O.[Ru+3]    95
CC(C)=N.[C-]#[O+].[C-]#[O+].[C-]#[O+].[C-]#[O+].[C-]#[O+].[W]    35
[Cl][Pt+2][Cl].[NH-]c1ccc([N+](=O)[O-])cc1[NH-]    62

Determine its reported growth inhibition: O=C(Nc1n[c]([Hg][Cl])[c]([Hg][Cl])s1)OCc1ccccc1
99

Determine its reported growth inhibition: O=[As]c1ccccc1O (stereo unspecified)
98

Determine its reported growth inhibition: CC(=O)c1cc2c(cc1O)C(C)(C)CCC2(C)C
0

Determine its reported growth inhibition: Cc1ccc(N=P(c2ccccc2)(c2ccccc2)c2ccccc2)cc1.[Br][Hg][Br]
100

Determine its reported growth inhibition: CN(CCCl)c1ccc(/C=C/C2=[N+](C)c3ccccc3C2(C)C)cc1
98

Determine its reported growth inhibition: O=[N+]([O-])/C=C/c1ccc(Cl)cc1[N+](=O)[O-]
99

Determine its reported growth inhibition: CCCCCCC(=O)[O][Hg][c]1ccccc1
100

Determine its reported growth inhibition: O=C(CBr)OCC(Br)CBr (stereo unspecified)
50
